Source: patent US20170008928A1

Field: IC50. Provide a value for each of the compounds that follow.
# Tgt: human cholecystokinin-1 receptor (CCK-1R) (Homo sapiens, UniProt P32238)
# Construct: host or cells: 1321-N1 cells
# Sequence (P32238 whole entry): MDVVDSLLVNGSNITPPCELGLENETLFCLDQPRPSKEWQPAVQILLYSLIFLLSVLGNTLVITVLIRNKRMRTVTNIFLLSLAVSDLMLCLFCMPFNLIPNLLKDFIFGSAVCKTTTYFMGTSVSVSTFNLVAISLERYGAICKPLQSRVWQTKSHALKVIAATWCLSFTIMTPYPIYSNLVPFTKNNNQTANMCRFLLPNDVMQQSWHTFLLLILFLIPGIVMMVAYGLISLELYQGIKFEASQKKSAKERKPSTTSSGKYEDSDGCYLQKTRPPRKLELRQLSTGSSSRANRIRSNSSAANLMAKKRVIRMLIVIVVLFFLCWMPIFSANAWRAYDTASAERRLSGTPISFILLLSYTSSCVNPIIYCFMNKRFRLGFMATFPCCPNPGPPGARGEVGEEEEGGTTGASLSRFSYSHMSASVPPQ
# Assay Details: In vitro receptor binding to CCK-1R, SPA displacement of [125I]-CCK-8s from plasma membranes
# Condition Set: displacement of [125I]-CCK-8s, plasma membranes of 1321-N1 cells expressing CCK-1R; read-out: IC50 (CCK-1R)
Starred links: 1 amine or outer side, 2 acyl side, 3 side chain; linkers in the order of their positions; H or OH if unused. Non-standard residues stand in square brackets, D forms with d. Residues, ends and D or L forms follow the SMILES beside them. *: point of attachment. Phe(4-CH2SO3H) = N[C@@H](Cc1ccc(CS(=O)(=O)O)cc1)C(=O)O; sY = N[C@@H](Cc1ccc(OS(=O)(=O)O)cc1)C(=O)O; C18 diacid = O=C(O)CCCCCCCCCCCCCCCCC(=O)*; d(βAsp) = O=C(O)[C@@H](CC(=O)[*:2])N[*:1]; γGlu = O=C(O)[C@H](CCC(=O)[*:2])N[*:1]; 1Nal = N[C@@H](Cc1cccc2ccccc12)C(=O)O; 2Nal = N[C@@H](Cc1ccc2ccccc2c1)C(=O)O; NMeF = CN[C@@H](Cc1ccccc1)C(=O)O; dNMeD = CN[C@H](CC(=O)O)C(=O)O; Nle = CCCC[C@H](N)C(=O)O; AEEA = NCCOCCOCC(=O)O
Answers are plain numbers, in nM.

Sample answers from the record:
INSERT INTO assay_data (compound, assay_endpoint, value_measured) VALUES
  ('CCCC[C@H](NC(=O)[C@H](Cc1c[nH]c2ccccc12)NC(=O)CNC(=O)[C@H](CC(C)C)NC(=O)[C@H](Cc1ccc(OS(=O)(=O)O)cc1)NC(=O)[C@H](CCC(=O)O)NC(=O)COCCOCCNC(=O)COCCOCCNC(=O)CC[C@H](NC(=O)CCCCCCCCCCCCCCCCC(=O)O)C(=O)O)C(=O)N(C)[C@H](CC(=O)O)C(=O)N[C@@H](Cc1ccccc1)C(N)=O [Example 52] ({C18 diacid-γGlu-AEEA-AEEA}-E[sY]LGW[Nle][dNMeD]F-NH2)', 'IC50', 0.049),
  ('CCCC[C@H](NC(=O)[C@H](Cc1ccc(CS(=O)(=O)O)cc1)NC(=O)[C@@H](CC(=O)O)NC(=O)COCCOCCNC(=O)COCCOCCNC(=O)CC[C@H](NC(=O)CCCCCCCCCCCCCCCCC(=O)O)C(=O)O)C(=O)NCC(=O)N[C@@H](Cc1c[nH]c2ccccc12)C(=O)N[C@@H](CCCC)C(=O)N(C)[C@H](CC(=O)O)C(=O)N(C)[C@@H](Cc1ccccc1)C(N)=O [Example 25] ({C18 diacid-γGlu-AEEA-AEEA}-[dD][Phe(4-CH2SO3H)][Nle]GW[Nle][dNMeD][NMeF]-NH2)', 'IC50', 0.072),
  ('CCCC[C@H](NC(=O)[C@H](Cc1c[nH]c2ccccc12)NC(=O)CNC(=O)[C@H](CC(C)C)NC(=O)[C@H](Cc1ccc(OS(=O)(=O)O)cc1)NC(=O)[C@H](CC(=O)O)NC(=O)COCCOCCNC(=O)COCCOCCNC(=O)CC[C@H](NC(=O)CCCCCCCCCCCCCCCCC(=O)O)C(=O)O)C(=O)N(C)[C@H](CC(=O)O)C(=O)N[C@@H](Cc1ccc2ccccc2c1)C(N)=O [Example 50] ({C18 diacid-γGlu-AEEA-AEEA}-D[sY]LGW[Nle][dNMeD][2Nal]-NH2)', 'IC50', 0.14),
  ('CCCC[C@H](NC(=O)[C@H](Cc1ccc(CS(=O)(=O)O)cc1)NC(=O)C[C@@H](NC(=O)COCCOCCNC(=O)COCCOCCNC(=O)CC[C@H](NC(=O)CCCCCCCCCCCCCCCCC(=O)O)C(=O)O)C(=O)O)C(=O)NCC(=O)N[C@@H](Cc1c[nH]c2ccccc12)C(=O)N[C@@H](CCCC)C(=O)N(C)[C@H](CC(=O)O)C(=O)N(C)[C@@H](Cc1ccccc1)C(N)=O [Example 27] ({C18 diacid-γGlu-AEEA-AEEA-d(βAsp)}-[Phe(4-CH2SO3H)][Nle]GW[Nle][dNMeD][NMeF]-NH2)', 'IC50', 0.13);

Tell us which IC50 value is on record for CCCC[C@H](NC(=O)[C@H](Cc1ccc(OS(=O)(=O)O)cc1)NC(=O)[C@@H](N)CC(=O)O)C(=O)NCC(=O)N[C@@H](Cc1c[nH]c2ccccc12)C(=O)N[C@@H](CCCC)C(=O)N(C)[C@H](CC(=O)O)C(=O)N[C@@H](Cc1cccc2ccccc12)C(N)=O [Example 54] (H-D[sY][Nle]GW[Nle][dNMeD][1Nal]-NH2)
0.027
